experiment: In vivo topical administration pharmacokinetics of K173, rabbit (aqueous humor, cornea); details: aqueous humor, topical or ocular, 5 mg/ml, Group 2 (4 doses), topical 5 mg/ml, 2 hr post-last dose, OS, Mean, read-out: K173 Concentrations (ng/mL) in Rabbit Aqueous Humor OS Sample, Mean
Positions of bridges follow the written chain, without caps; N, C: chain ends. Non-standard residues stand in square brackets, D forms with d. Residues, ends and D or L forms follow the SMILES beside them. Triazole bridges read from a SMILES are 1,4-linked. *: point of attachment. Benzoyl(3,5-(OH)2) = O=C(c1cc(O)cc(O)c1)*; Lys(N3) = [N-]=[N+]=NCCCC[C@H](N)C(=O)O; dPhe(4-F) = N[C@H](Cc1ccc(F)cc1)C(=O)O; Nle = CCCC[C@H](N)C(=O)O; Pra = C#CC[C@H](N)C(=O)O
reported_endpoint: level at 2 h

compound="CCCC[C@H](NC(=O)c1cc(O)cc(O)c1)C(=O)N[C@H]1CCCCn2cc(nn2)C[C@@H](C(N)=O)NC(=O)[C@H](Cc2c[nH]c3ccccc23)NC(=O)[C@H](CCCNC(=N)N)NC(=O)[C@@H](Cc2ccc(F)cc2)NC(=O)[C@H](Cc2c[nH]cn2)NC1=O [KR-072] ({Benzoyl(3,5-(OH)2)}-[Nle][Lys(N3)]H[dPhe(4-F)]RW[Pra]-NH2; triazole 2-7)" val="7.84 ng/mL"

====

experiment: In vivo topical administration pharmacokinetics of K173, rabbit (aqueous humor, cornea); conditions: aqueous humor, topical or ocular, 5 mg/ml solution, 35 L per eye, Group 2 (4 doses), topical 5 mg/ml, 1 hr post-last dose, OD, Mean, read-out: K173 Concentrations (ng/mL) in Rabbit Aqueous Humor OD Sample, Mean
Positions of bridges follow the written chain, without caps; N, C: chain ends. Non-standard residues stand in square brackets, D forms with d. Residues, ends and D or L forms follow the SMILES beside them. Triazole bridges read from a SMILES are 1,4-linked. *: point of attachment. Benzoyl(3,5-(OH)2) = O=C(c1cc(O)cc(O)c1)*; Lys(N3) = [N-]=[N+]=NCCCC[C@H](N)C(=O)O; dPhe(4-F) = N[C@H](Cc1ccc(F)cc1)C(=O)O; Nle = CCCC[C@H](N)C(=O)O; Pra = C#CC[C@H](N)C(=O)O
reported_endpoint: level at 1 h (ng/mL)

molecule="CCCC[C@H](NC(=O)c1cc(O)cc(O)c1)C(=O)N[C@H]1CCCCn2cc(nn2)C[C@@H](C(N)=O)NC(=O)[C@H](Cc2c[nH]c3ccccc23)NC(=O)[C@H](CCCNC(=N)N)NC(=O)[C@@H](Cc2ccc(F)cc2)NC(=O)[C@H](Cc2c[nH]cn2)NC1=O [KR-072] ({Benzoyl(3,5-(OH)2)}-[Nle][Lys(N3)]H[dPhe(4-F)]RW[Pra]-NH2; triazole 2-7)" reported_endpoint="level at 1 h" val=2.75

====

Experiment: In vivo topical administration pharmacokinetics of K173, rabbit (aqueous humor, cornea)
Conditions: aqueous humor, topical or ocular, 5 mg/ml, Group 3 (8 BID doses), topical 5 mg/ml, 1 hr post-last dose, OD, Mean, read-out: K173 Concentrations (ng/mL) in Rabbit Aqueous Humor OD Sample, Mean
Procedure: Animals were not tranquilized for the examinations. The remaining ocular tissues were discarded. Ocular samples were stored −80° C. The rabbit efficacy model can be used to determine if QD or BID dosing is optimal for clinical utility.
Positions of bridges follow the written chain, without caps; N, C: chain ends. Non-standard residues stand in square brackets, D forms with d. Residues, ends and D or L forms follow the SMILES beside them. Triazole bridges read from a SMILES are 1,4-linked. *: point of attachment. Benzoyl(3,5-(OH)2) = O=C(c1cc(O)cc(O)c1)*; Lys(N3) = [N-]=[N+]=NCCCC[C@H](N)C(=O)O; dPhe(4-F) = N[C@H](Cc1ccc(F)cc1)C(=O)O; Nle = CCCC[C@H](N)C(=O)O; Pra = C#CC[C@H](N)C(=O)O
reported_endpoint: level at 1 h (ng/mL)

molecule="CCCC[C@H](NC(=O)c1cc(O)cc(O)c1)C(=O)N[C@H]1CCCCn2cc(nn2)C[C@@H](C(N)=O)NC(=O)[C@H](Cc2c[nH]c3ccccc23)NC(=O)[C@H](CCCNC(=N)N)NC(=O)[C@@H](Cc2ccc(F)cc2)NC(=O)[C@H](Cc2c[nH]cn2)NC1=O [KR-072] ({Benzoyl(3,5-(OH)2)}-[Nle][Lys(N3)]H[dPhe(4-F)]RW[Pra]-NH2; triazole 2-7)" reported_endpoint="level at 1 h" val=5

====

experiment: In vivo topical administration pharmacokinetics of K173, rabbit (aqueous humor, cornea); details: aqueous humor, topical or ocular, 5 mg/ml solution, 35 L per eye, Group 1 (single dose), topical 5 mg/ml, 1 hr post-last dose, OD, Mean, read-out: K173 Concentrations (ng/mL) in Rabbit Aqueous Humor OD Sample, Mean
Positions of bridges follow the written chain, without caps; N, C: chain ends. Non-standard residues stand in square brackets, D forms with d. Residues, ends and D or L forms follow the SMILES beside them. Triazole bridges read from a SMILES are 1,4-linked. *: point of attachment. Benzoyl(3,5-(OH)2) = O=C(c1cc(O)cc(O)c1)*; Lys(N3) = [N-]=[N+]=NCCCC[C@H](N)C(=O)O; dPhe(4-F) = N[C@H](Cc1ccc(F)cc1)C(=O)O; Nle = CCCC[C@H](N)C(=O)O; Pra = C#CC[C@H](N)C(=O)O
reported_endpoint: level at 1 h

compound="CCCC[C@H](NC(=O)c1cc(O)cc(O)c1)C(=O)N[C@H]1CCCCn2cc(nn2)C[C@@H](C(N)=O)NC(=O)[C@H](Cc2c[nH]c3ccccc23)NC(=O)[C@H](CCCNC(=N)N)NC(=O)[C@@H](Cc2ccc(F)cc2)NC(=O)[C@H](Cc2c[nH]cn2)NC1=O [KR-072] ({Benzoyl(3,5-(OH)2)}-[Nle][Lys(N3)]H[dPhe(4-F)]RW[Pra]-NH2; triazole 2-7)" val="1.13 ng/mL"

====

conditions: rabbit
Positions of bridges follow the written chain, without caps; N, C: chain ends. Non-standard residues stand in square brackets, D forms with d. Residues, ends and D or L forms follow the SMILES beside them. Triazole bridges read from a SMILES are 1,4-linked. *: point of attachment. Benzoyl(3,5-(OH)2) = O=C(c1cc(O)cc(O)c1)*; Lys(N3) = [N-]=[N+]=NCCCC[C@H](N)C(=O)O; dPhe(4-F) = N[C@H](Cc1ccc(F)cc1)C(=O)O; Aad = N[C@@H](CCCC(=O)O)C(=O)O; Nle = CCCC[C@H](N)C(=O)O; Pra = C#CC[C@H](N)C(=O)O
Items are presented alongside their recorded Topical Ocular Permeability (nM ± SEM).
reported_endpoint: Topical Ocular Permeability (nM ± SEM) (nM)

molecule="CCCC[C@H](NC(C)=O)C(=O)N[C@H]1CCCCn2cc(nn2)C[C@@H](C(N)=O)NC(=O)[C@H](Cc2c[nH]c3ccccc23)NC(=O)[C@H](CCCNC(=N)N)NC(=O)[C@@H](Cc2ccccc2)NC(=O)[C@H](Cc2cnc[nH]2)NC1=O [KR-009] (Ac-[Nle][Lys(N3)]H[dF]RW[Pra]-NH2; triazole 2-7)" reported_endpoint="Topical Ocular Permeability (nM ± SEM)" unit_string=nM val=1.43
molecule="CCCC[C@H](NC(=O)c1cc(O)cc(O)c1)C(=O)N[C@H]1CCCCn2cc(nn2)C[C@@H](C(N)=O)NC(=O)[C@H](Cc2c[nH]c3ccccc23)NC(=O)[C@H](CCCNC(=N)N)NC(=O)[C@@H](Cc2ccc(F)cc2)NC(=O)[C@H](Cc2c[nH]cn2)NC1=O [KR-072] ({Benzoyl(3,5-(OH)2)}-[Nle][Lys(N3)]H[dPhe(4-F)]RW[Pra]-NH2; triazole 2-7)" reported_endpoint="Topical Ocular Permeability (nM ± SEM)" unit_string=nM val=15.5
molecule="CCCC[C@H](NC(C)=O)C(=O)N[C@H]1CCCCn2cc(nn2)C[C@@H](C(N)=O)NC(=O)[C@H](Cc2c[nH]c3ccccc23)NC(=O)[C@H](CCCNC(=N)N)NC(=O)[C@@H](Cc2ccc(F)cc2)NC(=O)[C@H](Cc2c[nH]cn2)NC1=O [KR-049] (Ac-[Nle][Lys(N3)]H[dPhe(4-F)]RW[Pra]-NH2; triazole 2-7)" reported_endpoint="Topical Ocular Permeability (nM ± SEM)" unit_string=nM val=23.9
molecule="CCCC[C@H](NC(=O)c1cc(O)cc(O)c1)C(=O)N[C@H]1CCCCn2cc(nn2)C[C@@H](C(N)=O)NC(=O)[C@H](Cc2c[nH]c3ccccc23)NC(=O)[C@H](CCCNC(=N)N)NC(=O)[C@@H](Cc2ccccc2)NC(=O)[C@H](Cc2c[nH]cn2)NC1=O [KR-073] ({Benzoyl(3,5-(OH)2)}-[Nle][Lys(N3)]H[dF]RW[Pra]-NH2; triazole 2-7)" reported_endpoint="Topical Ocular Permeability (nM ± SEM)" unit_string=nM val=12.3
molecule="CCCC[C@H](NC(=O)c1cc(O)cc(O)c1)C(=O)N[C@H]1CCCCn2cc(nn2)C[C@@H](C(=O)N[C@@H](CCCC(N)=O)C(N)=O)NC(=O)[C@H](Cc2c[nH]c3ccccc23)NC(=O)[C@H](CCCNC(=N)N)NC(=O)[C@@H](Cc2ccc(F)cc2)NC(=O)[C@H](Cc2c[nH]cn2)NC1=O [KR-071] ({Benzoyl(3,5-(OH)2)}-[Nle][Lys(N3)]H[dPhe(4-F)]RW[Pra][Aad](NH2)-NH2; triazole 2-7)" reported_endpoint="Topical Ocular Permeability (nM ± SEM)" unit_string=nM val=2.5
